organism: Cavia porcellus; test: Agonist activity at guinea pig lung muscarinic M4 receptor relative to McN-A-343
measured-parameter: Intrinsic activity
A bare number is all that is needed in reply.

What value of Intrinsic activity has been reported for the following compound? CC(C[N+](C)(C)C)OC(N)=O (centres undefined) 1

// returns reported Intrinsic activity for input `C[N+](C)(C)C[C@@H]1COCCO1` 0.85

Field request: Intrinsic activity | item: `C[C@@H]1CO[C@H](C[N+](C)(C)C)CO1` 0.55

Form field: reported Intrinsic activity of C[C@H]1OC[C@@H](C[N+](C)(C)C)O1 (relative stereo) 1

###

molecular target: Muscarinic acetylcholine receptor M4 (Homo sapiens); assay: Displacement of [3H]NMS from human muscarinic M4 receptor transfected in CHO cells after 120 mins by scintillation counting analysis; format: cell-based
Sequence (P08173 whole entry): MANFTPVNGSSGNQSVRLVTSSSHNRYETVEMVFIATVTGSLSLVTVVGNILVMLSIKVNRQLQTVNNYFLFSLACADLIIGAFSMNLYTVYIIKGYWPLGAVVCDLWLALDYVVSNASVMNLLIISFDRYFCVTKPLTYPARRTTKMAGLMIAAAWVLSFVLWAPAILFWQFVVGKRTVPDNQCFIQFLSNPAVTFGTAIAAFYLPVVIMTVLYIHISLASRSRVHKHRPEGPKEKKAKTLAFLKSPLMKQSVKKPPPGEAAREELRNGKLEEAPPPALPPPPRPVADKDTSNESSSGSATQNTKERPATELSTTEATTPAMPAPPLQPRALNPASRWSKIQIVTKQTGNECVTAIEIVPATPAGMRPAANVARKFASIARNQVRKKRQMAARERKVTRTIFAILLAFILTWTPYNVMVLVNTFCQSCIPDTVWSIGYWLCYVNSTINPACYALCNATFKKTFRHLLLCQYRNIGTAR
So I've got a bunch of molecules here, and I need their pKi values.
In simple prose, pKi is minus the logarithm base ten of a concentration in moles per litre.

Form: Entry = C[C@H]1OC[C@@H](C[N+](C)(C)C)O1 (relative stereo) | System = Muscarinic acetylcholine receptor M4 (Homo sapiens) | pKi = ____ 5.05

Lab note: need pKi for CC1OC2(CS1)CN1CCC2CC1 (stereo unspecified) on Muscarinic acetylcholine receptor M4 (Homo sapiens), anyone have it? 5.99

Test system Muscarinic acetylcholine receptor M4 (Homo sapiens); read-out pKi; what value for `C[N+](C)(C)C[C@@H]1COCCO1` ? 4.68

Data credit: ChEMBL document CHEMBL3351776
